System: MDA-MB-435 melanoma
procedure_details: NCI-60 one-dose screen, 48 h (100 = growth as untreated, 0 = no growth, -100 = all killed)
stated_conditions: 10 µM unless noted
The panel holds about 83,000 compounds, 20% with a hit somewhere; the sample as a whole holds those more often.
# maps each entry to its growth
API: value field is a number in %; no unit string.

See these solved cases before continuing.
Lookup: # returns recorded growth (system: MDA-MB-435 melanoma) for `COc1ccc(-c2cc(-c3cc(C(C)C)c(O)cc3C)nn2-c2ccc(S(N)(=O)=O)cc2)cc1`
Found: -58.2

Lookup: Thanks! And `COc1cccc(NC(=O)c2ccc(NC(=O)CCl)s2)c1` ?
Found: 2.66

Lookup: Repeat for the following compound: `O=C(N/N=C/c1ccc(Cl)o1)c1[nH]c2ccc(Br)cc2c1-c1ccccc1`
Found: -47.9

Lookup: # repeat for `O=C(CSc1nnc(-c2ccc(-c3nc4ccccc4[nH]3)cc2)o1)Nc1ccc(Br)cc1`
Found: 18.3

Continuing:
Lookup: Requested read-out growth, target or system MDA-MB-435 melanoma, entry `O=C1NC(=NC23CC4CC(CC(C4)C2)C3)N/C1=C\c1ccc2ncccc2c1`
Found: -22.6
